B1: ZNF449 (parent)
chain: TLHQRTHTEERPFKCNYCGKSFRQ

Variants of: B1
Assay: protein stability index of a GFP-peptide fusion (GPS, HEK-293T) (PSI 1-6); higher = more stable;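 further: lentivirally expressed fusions sorted by FACS into six bins by GFP to DsRed ratio, PSI derived from sequencing read proportions per bin multiplied by bin number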
Conditions: c terminus: a fixed tail appended
measurement.kind: protein stability index

1) R11E
3.24
2) K20S
2.12
3) K14H
2.31
